Target: T1, canine TGFβ2 (canine, UniProt A0A8I3PZZ6 331-442)
T1 sequence: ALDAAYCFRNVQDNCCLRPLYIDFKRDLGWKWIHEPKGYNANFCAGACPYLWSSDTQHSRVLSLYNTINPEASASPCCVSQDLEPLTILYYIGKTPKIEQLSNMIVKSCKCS
Test: SPR, TGFβ on chip
pKd: −log10 of the molar value.

# binder, pKd
measured = [
    ("Can04H09 VH3/VL4 (antibody, V domains shown) VH: EVQLVQSAAEVKKPGASVKVSCKTSGYTFTSSWMNWVQQAPGAGLDWMGQIYPGDGDTNYNGKFKGRVTLTADTSTSTAYMELSSLRAEDTAVYYCARHYDGSTDYWGQGTLVTVSS VL: EIVMTQSPASLSLSQGEKVTITCRASENIYSNLAWYQQRPGQAPKLLIYAATNLADGVPSRFSGSGSGTDFSLTISSLEPEDVAVYYCQHFWGTPYTFGQGTK", 7.49),
    ("Can04H09 VH1/VL3 (antibody, V domains shown) VH: EVQLVQSGAEVKKPGASVKVSCKTSGYTFISSWMNWVRQAPGAGLDWMGQIYPGDGDTNYNGKFKGRVTLTADTSTSTAYMELSSLRAGDIAVYYCARHYDGSTDYWGQGTLVTVSS VL: EIVMTQSPASLSLSQEEKVTITCRASENIYSNLAWYQQKPGQAPKLLIYAATNLADGVPSRFSGSGSGTDFSFTISSLEPEDVAVYYCQHFWGTPYTFGQGTK", 7.49),
    ("Can04H09 VH2/VL4 (antibody, V domains shown) VH: EVQLVQSAAEVKKPGASVKVSCKTSGYSFTSSWMNWVQQAPGKGLDWMGQIYPGDGDTNYNGKFKGRVTLTADKSTSTAYMELSSLRSEDAAVYYCARHYDGSTDYWGQGTLVTVSS VL: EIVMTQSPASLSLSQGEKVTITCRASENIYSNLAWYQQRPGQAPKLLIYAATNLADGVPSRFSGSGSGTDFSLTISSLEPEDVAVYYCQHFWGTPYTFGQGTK", 7.48),
    ("Can04H09 VH3/VL3 (antibody, V domains shown) VH: EVQLVQSAAEVKKPGASVKVSCKTSGYTFTSSWMNWVQQAPGAGLDWMGQIYPGDGDTNYNGKFKGRVTLTADTSTSTAYMELSSLRAEDTAVYYCARHYDGSTDYWGQGTLVTVSS VL: EIVMTQSPASLSLSQEEKVTITCRASENIYSNLAWYQQKPGQAPKLLIYAATNLADGVPSRFSGSGSGTDFSFTISSLEPEDVAVYYCQHFWGTPYTFGQGTK", 7.31),
    ("Can04H09 VH1/VL4 (antibody, V domains shown) VH: EVQLVQSGAEVKKPGASVKVSCKTSGYTFISSWMNWVRQAPGAGLDWMGQIYPGDGDTNYNGKFKGRVTLTADTSTSTAYMELSSLRAGDIAVYYCARHYDGSTDYWGQGTLVTVSS VL: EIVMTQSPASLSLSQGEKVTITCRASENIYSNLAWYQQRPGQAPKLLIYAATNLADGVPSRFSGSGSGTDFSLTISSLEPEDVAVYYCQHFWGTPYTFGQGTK", 7.53),
]

Origin of the recorded values: patent US20220119513A1
